# Lookup of reported TGI keyed by entry
System: K-562 leukemia
ASSAY SUMMARY: NCI tumour cell line growth inhibition, 48 h
*1 amine or outer side, *2 acyl side, *3 side chain or, on linkers, in order; H or OH if unused. Where a SMILES comes first, the peptide text is derived from it. Bridges are numbered along the chain shown (N, C = ends). [ ]: non-standard residue; d: D form. The star is where a group is joined. Phe(3-Me) = Cc1cccc(C[C@H](N)C(=O)O)c1; NH(4-Cl-2-F-phenyl) = Fc1cc(Cl)ccc1N*; Pro(4R-Me) = C[C@H]1CN[C@H](C(=O)O)C1; Hyp = O=C(O)[C@@H]1C[C@@H](O)CN1; aThr = C[C@H](O)[C@H](N)C(=O)O; Pip = O=C(O)[C@@H]1CCCCN1; CO = O=C([*:1])[*:2]

Reference set (3 entries):
Identify measured TGI corresponding to `COc1cc(/C=C2\CCc3cc(OC)c(OC)cc3C2=O)cc(OC)c1` > 61 µM

Identify measured TGI corresponding to OCC1CCCCN1Cc1nc2ccc(Cl)cc2[nH]1 (stereo not drawn) > 100 µM

Identify measured TGI corresponding to Cc1cccc(C[C@H](NC(=O)Nc2ccc(Cl)cc2F)C(=O)N[C@@H]2C(=O)N3C[C@H](O)C[C@H]3C(=O)N3CCCC[C@H]3C(=O)N[C@@H](C)C(=O)N3C[C@H](C)C[C@H]3C(=O)O[C@H]2C)c1 ({NH(4-Cl-2-F-phenyl)-CO}-[Phe(3-Me)][aThr][Hyp][Pip]A[Pro(4R-Me)]; ester 2-C) > 33.7 µM

---
Identify measured TGI corresponding to `C/C(=N/NC(=S)N(Cc1ccccn1)Cc1ccccn1)c1cnccn1` > 100 µM

Identify measured TGI corresponding to CC1(C)SC2C(NC(=O)Cc3ccccc3)C(=O)N2C1C(=O)O (stereo not drawn) > 100 µM

Identify measured TGI corresponding to `CCO[C@H]1C[C@@H](c2ccccc2)[C@]2(C)C[C@H](C(=O)OC)ON2O1` > 100 µM

###

Test system: SNB-75 CNS
ASSAY SUMMARY: NCI tumour cell line growth inhibition, 48 h
# Lookup of reported TGI keyed by entry

Identify measured TGI corresponding to N#CSCC1CC(O)(c2ccccc2)C(c2ccccc2)C(c2ccc(F)cc2)O1 (stereo not drawn) 45.2 µM

Identify measured TGI corresponding to `c1cncc(C(Nc2cccc3cccnc23)Nc2cccc3cccnc23)c1` > 100 µM

Identify measured TGI corresponding to `Cc1ccc2c(=O)[nH]sc2c1` > 100 µM

Identify measured TGI corresponding to `O=C(c1cc(-c2cc3c(cc2C(=O)N2Cc4ccccc4C[C@H]2CN2CCOCC2)OCO3)n2c1CCCC2)N(c1ccccc1)c1ccc(O)cc1` > 100 µM

Identify measured TGI corresponding to CC1=NN(C(=O)CC(=O)Nc2cccc(Cl)c2)C(=O)C1N=Nc1ccc(S(=O)(=O)c2ccc(N=NC3C(=O)N(C(=O)CC(=O)Nc4cccc(Cl)c4)N=C3C)cc2)cc1 (stereo not drawn) > 100 µM

---
Identify measured TGI corresponding to `Cl.Fc1c[c-]c(-c2ccccn2)c(F)c1.[Pt].c1ccc([PH+](CC[PH+](c2ccccc2)c2ccccc2)c2ccccc2)cc1` 0.534 µM

Identify measured TGI corresponding to `COc1ccc(NC(C)=O)c(C(=O)CCNC(C)=O)c1` > 100 µM

Identify measured TGI corresponding to `CC(=O)Oc1cccc2c1C(=O)C(Br)(Br)CCC2` 16.5 µM
